In this section, each of the compounds is paired with its reported inhibition.
Target: Adenosine receptor A1 (Homo sapiens)
Experiment: Displacement of [3H]-R-PIA from recombinant human adenosine A1 receptor expressed in CHO cells at 10 uM after 60 mins by scintillation counting analysis relative to control
Format: cell-based
Numbers only here, please. The scale is %.

Would you please look over these solved cases?
{"SMILES NOTATION": "CCCCC#Cc1nc(NCc2cccc(F)c2)c2ncn([C@H]3[C@H](O)[C@H](O)[C@@H]4C[C@@H]43)c2n1", "READOUT UNIT": "%", "inhibition": 21}
{"SMILES NOTATION": "CCCCC#Cc1nc(NCc2cccc(I)c2)c2ncn([C@H]3[C@H](O)[C@H](O)[C@@H]4C[C@@H]43)c2n1", "READOUT UNIT": "%", "inhibition": 48}
{"SMILES NOTATION": "CCCCC#Cc1nc(NCC)c2ncn([C@H]3[C@H](O)[C@H](O)[C@@H]4C[C@@H]43)c2n1", "READOUT UNIT": "%", "inhibition": 31}

We next turn to a different compound, shown below.
Enter reported inhibition observed with Adenosine receptor A1 (Homo sapiens) for CCCCC#Cc1nc(N)c2ncn([C@H]3[C@H](O)[C@H](O)[C@@H]4C[C@@H]43)c2n1
29
